Source of measurements: ChEMBL document CHEMBL4477236

# system: Steroid 17-alpha-hydroxylase/17,20 lyase (Homo sapiens)
# Sequence (P05093 whole entry): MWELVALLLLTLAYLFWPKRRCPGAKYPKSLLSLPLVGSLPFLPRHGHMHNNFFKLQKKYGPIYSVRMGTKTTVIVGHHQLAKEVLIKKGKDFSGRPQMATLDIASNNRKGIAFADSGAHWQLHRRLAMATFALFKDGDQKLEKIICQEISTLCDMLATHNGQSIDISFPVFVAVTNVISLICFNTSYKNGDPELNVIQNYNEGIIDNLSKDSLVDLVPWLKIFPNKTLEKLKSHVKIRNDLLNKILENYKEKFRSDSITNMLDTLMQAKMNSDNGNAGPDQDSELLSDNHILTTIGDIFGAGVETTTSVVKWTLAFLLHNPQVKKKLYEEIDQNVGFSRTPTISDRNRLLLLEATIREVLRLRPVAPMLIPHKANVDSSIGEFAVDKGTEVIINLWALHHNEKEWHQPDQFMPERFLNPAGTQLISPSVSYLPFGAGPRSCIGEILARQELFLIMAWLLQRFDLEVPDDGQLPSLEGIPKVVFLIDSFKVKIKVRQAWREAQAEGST
Let's look at some compounds and their measured pIC50.
// pIC50: -log10(molar conc.)

pIC50 for `C[C@]12CC[C@H](n3ccnc3)CC1=CC[C@@H]1[C@@H]2CC[C@]2(C)C(n3cnc4ccccc43)=CC[C@@H]12` ?
6.32

pIC50 for `CO[C@H]1CC[C@@]2(C)C(=CC[C@@H]3[C@@H]2CC[C@]2(C)C(n4cnc5ccccc54)=CC[C@@H]32)C1` ?
4.41

pIC50 for `C[C@]12CC[C@@H]3c4ccc(O)cc4CC[C@H]3[C@@H]1CC=C2n1cnc2ccccc21` ?
4.59

* * *

Let's look at some molecules and their measured pEC50.
# system: Androgen receptor (Homo sapiens, UniProt P10275)
# Sequence (P10275 whole entry): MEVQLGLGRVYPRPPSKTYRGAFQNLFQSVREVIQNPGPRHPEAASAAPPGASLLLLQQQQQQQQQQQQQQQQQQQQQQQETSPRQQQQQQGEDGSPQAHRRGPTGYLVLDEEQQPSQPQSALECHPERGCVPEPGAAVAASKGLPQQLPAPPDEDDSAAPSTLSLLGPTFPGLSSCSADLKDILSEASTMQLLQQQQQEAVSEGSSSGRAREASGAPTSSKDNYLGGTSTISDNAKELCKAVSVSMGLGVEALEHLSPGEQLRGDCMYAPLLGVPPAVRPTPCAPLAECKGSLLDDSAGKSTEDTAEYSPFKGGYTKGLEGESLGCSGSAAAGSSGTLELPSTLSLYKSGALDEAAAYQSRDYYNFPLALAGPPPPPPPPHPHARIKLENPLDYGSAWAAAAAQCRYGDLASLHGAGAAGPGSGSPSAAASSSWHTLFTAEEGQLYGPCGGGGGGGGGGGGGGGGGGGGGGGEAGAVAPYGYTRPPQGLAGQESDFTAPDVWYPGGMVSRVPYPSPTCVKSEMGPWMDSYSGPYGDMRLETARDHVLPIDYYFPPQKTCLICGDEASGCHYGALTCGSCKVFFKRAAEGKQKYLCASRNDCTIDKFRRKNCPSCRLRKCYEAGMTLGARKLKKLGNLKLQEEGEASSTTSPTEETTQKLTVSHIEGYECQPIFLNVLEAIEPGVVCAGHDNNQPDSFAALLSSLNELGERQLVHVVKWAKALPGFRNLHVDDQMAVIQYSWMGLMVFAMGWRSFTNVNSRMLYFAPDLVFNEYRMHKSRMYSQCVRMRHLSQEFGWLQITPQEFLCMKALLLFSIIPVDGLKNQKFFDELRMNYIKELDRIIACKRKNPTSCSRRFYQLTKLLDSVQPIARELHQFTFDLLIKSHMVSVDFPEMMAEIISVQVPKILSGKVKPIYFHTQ
# assay: Inhibition of DHT-induced androgen receptor transactivation in human LNCaP cells after 24 hrs by luciferase reporter gene assay relative to control
// pEC50: -log10(molar conc.)

- C[C@]12CC[C@H](OCc3ccncc3)CC1=CC[C@@H]1[C@@H]2CC[C@]2(C)C(n3cnc4ccccc43)=CC[C@@H]12: 5.78
- C[C@]12CC[C@H](n3ccnc3)CC1=CC[C@@H]1[C@@H]2CC[C@]2(C)C(n3cnc4ccccc43)=CC[C@@H]12: 6.72

pEC50 for C[C@]12CC[C@H]3[C@@H](C[C@@H](n4ccnc4)C45CC4CC[C@]35C)[C@@H]1CC=C2n1cnc2ccccc21 (some centres undefined) ?
6.33

* * *

Let's look at some compounds and their measured IC50.
# system: Steroid 17-alpha-hydroxylase/17,20 lyase (Homo sapiens, UniProt P05093)
# Sequence (P05093 whole entry): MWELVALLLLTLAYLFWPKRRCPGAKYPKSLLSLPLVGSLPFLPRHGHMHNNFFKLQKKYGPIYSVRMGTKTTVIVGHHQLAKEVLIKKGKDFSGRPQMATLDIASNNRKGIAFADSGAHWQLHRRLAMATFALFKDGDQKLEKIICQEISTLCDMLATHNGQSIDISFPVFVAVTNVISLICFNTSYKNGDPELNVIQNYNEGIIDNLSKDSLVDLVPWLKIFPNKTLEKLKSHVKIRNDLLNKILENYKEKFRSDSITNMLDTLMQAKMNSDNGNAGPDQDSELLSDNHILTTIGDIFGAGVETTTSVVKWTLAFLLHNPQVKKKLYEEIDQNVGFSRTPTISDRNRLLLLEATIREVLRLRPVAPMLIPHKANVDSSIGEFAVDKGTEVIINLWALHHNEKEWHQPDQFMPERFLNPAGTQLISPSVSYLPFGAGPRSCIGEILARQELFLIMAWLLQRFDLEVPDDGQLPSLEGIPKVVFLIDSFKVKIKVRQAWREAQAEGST
Could you give me the number in nM? Just the number is fine.

- C[C@]12CC[C@H](O)CC1=CC[C@@H]1[C@@H]2CC[C@]2(C)C(n3cnc4ccccc43)=CC[C@@H]12 [GALETERONE]: 140

Please look at the following compound next.
IC50 for C[C@]12CC[C@H](O)CC1=CC[C@@H]1[C@@H]2CC[C@]2(C)C(c3cccnc3)=CC[C@@H]12 [ABIRATERONE] ?
48
